Attribution: patent US11976057B2

- assay system: human MRGPRX2 (Homo sapiens, UniProt Q96LB1)
- Sequence (Q96LB1 whole entry): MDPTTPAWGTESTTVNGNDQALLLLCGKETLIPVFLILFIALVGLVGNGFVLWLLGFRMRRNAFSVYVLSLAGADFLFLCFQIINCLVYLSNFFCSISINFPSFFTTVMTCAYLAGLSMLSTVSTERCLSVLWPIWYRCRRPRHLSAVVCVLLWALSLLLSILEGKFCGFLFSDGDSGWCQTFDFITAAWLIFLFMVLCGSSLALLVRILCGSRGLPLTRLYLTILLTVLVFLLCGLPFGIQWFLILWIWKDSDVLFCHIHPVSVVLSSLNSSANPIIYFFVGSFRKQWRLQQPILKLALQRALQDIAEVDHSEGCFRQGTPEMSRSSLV
- assay: Ca2+ mobilization assay (FLIPR TETRA): inhibition of Cortistatin-14 mediated MRGPRX2 activation
pIC50: −log10 of the molar value.
parameter measured: pIC50

Data request: Any idea what its pIC50 is? The compound is C[C@@H](C(=O)Nc1ccc(F)cn1)N1CCC(F)(F)C(c2cc(CO)c(=O)n(CC(F)(F)F)c2)C1 (stereo partly shown) [Example 199]
Data returned: 5.50 to 7.00

Data request: Any idea what its pIC50 is? The compound is CC(=O)NCc1cc([C@H]2CN([C@@H](C)C(=O)Nc3ccc(Oc4ccc(F)cc4)cn3)CCC2(F)F)c[nH]c1=O (single isomer, unassigned) [Example 245]
Data returned: ≥ 8.00

Data request: Any idea what its pIC50 is? The compound is C[C@@H](C(=O)Nc1cnc(Oc2ccc(F)cc2)cn1)N1CCC(F)(F)[C@@H](c2ccc(=O)[nH]c2)C1 [Example 68]
Data returned: 7.00 to 8.00

Data request: Any idea what its pIC50 is? The compound is C[C@@H](C(=O)Nc1ccc(Oc2ccc(F)cc2F)cn1)N1CCC(F)(F)[C@@H](c2c[nH]c(=O)c(CNCC(F)(F)F)c2)C1 [Example 242]
Data returned: ≥ 8.00
